Target: CDK9/CycT1 (Homo sapiens)
Construct: Recombinant full-length His-tagged human CDK9 and CycT1, expressed in insect cells; His
Sequence (P50750 whole entry): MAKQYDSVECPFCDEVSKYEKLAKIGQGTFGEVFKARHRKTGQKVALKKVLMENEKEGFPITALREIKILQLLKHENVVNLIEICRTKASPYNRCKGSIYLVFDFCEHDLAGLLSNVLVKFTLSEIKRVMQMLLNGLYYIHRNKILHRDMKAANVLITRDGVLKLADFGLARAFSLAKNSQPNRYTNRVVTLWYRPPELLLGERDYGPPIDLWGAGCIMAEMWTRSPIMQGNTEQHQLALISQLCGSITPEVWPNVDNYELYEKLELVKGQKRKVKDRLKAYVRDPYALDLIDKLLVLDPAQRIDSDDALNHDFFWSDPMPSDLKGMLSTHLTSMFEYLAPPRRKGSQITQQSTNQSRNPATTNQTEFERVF
Sequence (O60563 whole entry partner): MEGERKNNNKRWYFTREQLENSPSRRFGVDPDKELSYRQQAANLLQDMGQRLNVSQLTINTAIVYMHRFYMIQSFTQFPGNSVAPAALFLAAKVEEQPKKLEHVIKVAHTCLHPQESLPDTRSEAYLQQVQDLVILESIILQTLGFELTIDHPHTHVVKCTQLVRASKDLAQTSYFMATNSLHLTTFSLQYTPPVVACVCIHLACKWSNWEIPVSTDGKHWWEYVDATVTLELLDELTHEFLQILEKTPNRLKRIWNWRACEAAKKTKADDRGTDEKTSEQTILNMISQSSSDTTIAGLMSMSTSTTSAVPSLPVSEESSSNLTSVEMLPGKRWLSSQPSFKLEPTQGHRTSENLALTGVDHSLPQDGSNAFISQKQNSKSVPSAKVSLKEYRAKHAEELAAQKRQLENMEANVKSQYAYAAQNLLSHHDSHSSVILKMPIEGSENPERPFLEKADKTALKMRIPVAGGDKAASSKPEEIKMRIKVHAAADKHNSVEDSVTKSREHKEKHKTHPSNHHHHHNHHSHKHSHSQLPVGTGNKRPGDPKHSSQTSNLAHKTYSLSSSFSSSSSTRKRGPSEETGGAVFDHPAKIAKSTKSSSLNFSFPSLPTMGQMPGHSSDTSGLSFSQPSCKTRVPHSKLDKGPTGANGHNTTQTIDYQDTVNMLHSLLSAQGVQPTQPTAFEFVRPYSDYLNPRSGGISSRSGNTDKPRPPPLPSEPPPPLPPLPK
Test: CDK9/CycT1 high ATP kinase assay (TR-FRET, 2 mM ATP)
Conditions: read-out: CDK9/CyclinT1, 2 mM ATP (high ATP) IC50-[mol/l] (median)
Experimental: CDK9/CycT1-inhibitory activity of compounds of the present invention at a high ATP concentration after preincubation of enzyme and test compounds was quantified employing the CDK9/CycT1 TR-FRET assay as described in the following paragraphs. Recombinant full-length His-tagged human CDK9 and CycT1, expressed in insect cells and purified by Ni-NTA affinity chromatography, were purchased from Life Technologies (Cat. No PV4131). […]
measured-attribute: IC50 (µM)

1) C[C@@H]1CN(c2nc(NCc3nc4c(F)c(F)ccc4[nH]3)c3ncc(C(F)(F)F)n3n2)C[C@H](C)N1    4.62
2) CN(CC(C)(C)O)c1nc(NCc2nc3ccccc3[nH]2)c2ncc(C(F)(F)F)n2n1    10.8
3) Fc1ccc2[nH]c(CNc3nc(N4CCOCC4)nn4c(Br)cnc34)nc2c1F    9.06
4) OC[C@@H]1CCCCN1c1nc(NCc2nc3ccccc3[nH]2)c2ncc(Br)n2n1    4.11

----------
Target: CDK2/CycE (Homo sapiens)
Assay: CDK2/CycE kinase assay (TR-FRET, 2 mM ATP)
Conditions: read-out: CDK2/CyclinE, 2 mM ATP (high ATP) IC50-[mol/l] (median)
pIC50: −log10 of the molar value.
measured-attribute: pIC50

1. C[C@@H]1CN(c2nc(NCc3nc4c(F)c(F)ccc4[nH]3)c3ncc(Br)n3n2)C[C@H](C)O1    < 4.70
2. FC(F)(F)c1cnc2c(NCc3nc4ccccc4[nH]3)nc(N3CCOCC3)nn12    < 4.71
3. Brc1cnc2c(NCc3nc4ccccc4[nH]3)nc(N3CCNCC3)nn12    < 4.70
4. Fc1cccc(-c2cnc3c(NCc4nc5ccccc5[nH]4)nc(N4CCOCC4)nn23)c1    < 4.70
5. Fc1ccc2[nH]c(CNc3nc(N4CCOCC4)nn4c(Br)cnc34)nc2c1    4.76
6. CN1CCN(c2nc(NCc3nc4c(F)cccc4[nH]3)c3ncc(Br)n3n2)CC1    < 4.70
7. N#Cc1cnc2c(NCc3nc4ccccc4[nH]3)nc(N3CCOCC3)nn12    < 4.70
8. C[C@@H]1CN(c2nc(NCc3nc4c(F)c(F)ccc4[nH]3)c3ncc(C(F)(F)F)n3n2)C[C@H](C)N1    < 4.70

----------
Target: CDK2/CycE (Homo sapiens, UniProt P24941)
Assay: CDK2/CycE kinase assay (TR-FRET, 2 mM ATP)
Details: read-out: CDK2/CyclinE, 2 mM ATP (high ATP) IC50-[mol/l] (median)
pIC50: −log10 of the molar value.
The entries below are paired with their reported pIC50.
measured-attribute: pIC50

1) OC[C@@H]1CCCCN1c1nc(NCc2nc3ccccc3[nH]2)c2ncc(Br)n2n1 [Example 17]    5.85
2) COc1cccc2[nH]c(CNc3nc(N4CCN(C)CC4)nn4c(Br)cnc34)nc12.O=CO [Example 16]    4.90
3) Brc1cnc2c(NCc3nc4ccccc4[nH]3)nc(N3CCOCC3)nn12 [Example 1]    4.93
